From: patent US20050137220A1

Target of assay: MK-2 (Homo sapiens)
Sequence (P49137 whole entry, species assumed): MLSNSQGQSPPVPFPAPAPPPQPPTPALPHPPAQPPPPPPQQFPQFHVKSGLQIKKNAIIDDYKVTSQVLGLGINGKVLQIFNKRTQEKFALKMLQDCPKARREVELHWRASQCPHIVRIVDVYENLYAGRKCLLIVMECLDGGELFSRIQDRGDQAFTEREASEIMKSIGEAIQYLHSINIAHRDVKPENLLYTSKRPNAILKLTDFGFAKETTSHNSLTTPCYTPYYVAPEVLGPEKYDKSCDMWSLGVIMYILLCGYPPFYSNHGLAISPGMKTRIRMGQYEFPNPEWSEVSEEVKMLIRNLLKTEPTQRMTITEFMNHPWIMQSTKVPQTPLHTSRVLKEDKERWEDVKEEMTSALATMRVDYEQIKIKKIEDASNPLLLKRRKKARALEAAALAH
Assay protocol: Determination of MK-2 IC50 (phosphorylation of HSP-peptide, anion exchange resin capture assay)
Type: biochemical
Measurement conditions: additional values are replicate IC50 experiments; mixture of stereoisomers implied unless otherwise noted; read-out: MK-2 Avg. IC50
Structures can show the parent of a compound that is named as a salt.
Below, each of the compounds is paired with its reported IC50 value.

Example cases with answers are listed next.
compound="CCCC1Cc2c([nH]c3ccc(OC)cc23)C(C(=O)O)N1 (stereo not drawn) [Example 190]" test_value="> 200 µM"
compound="CC(=O)Oc1ccc2[nH]c3c(c2c1)CCNC3C(=O)O (stereo not drawn) [Example 156, trifluoroacetate]" test_value="167 µM"
compound="COc1ccc2[nH]c3c(c2c1)CCC/C3=N\\O [Example 19]" test_value="2.1 µM"

## Input Sample COC(=O)C1NCC(C)c2c1[nH]c1ccc(OC)cc21 (stereo not drawn) [Example 189] — what was its IC50?
## Output > 200 µM

## Input What about CCC(CC)CN1CCc2c([nH]c3ccc(OC)cc23)C1C(=O)O (stereo not drawn) [Example 197] ?
## Output > 200 µM

## Input What about COC(=O)C1c2[nH]c3ccc(OC)cc3c2CCN1Cc1ccccc1 (stereo not drawn) [Example 168] ?
## Output > 200 µM

## Input What about COc1ccc2[nH]c3c(c2c1)CCNC3(CCC(=O)O)C(=O)O (stereo not drawn) [Example 178] ?
## Output > 200 µM

## Input What about CN1C(=O)C(=O)c2c(n(C)c3ccccc23)C1=O [Example 263] ?
## Output > 200 µM

## Input What about CCOC(=O)CNC(=O)COc1ccc2[nH]c3c(c2c1)CCNC3C(=O)O (stereo not drawn) [Example 155, hydrochloride] ?
## Output 164 µM
